Target: KRAS(G12C) (Homo sapiens, UniProt P01116, G12C)
Sequence (P01116 1-188 isoform P01116-2 G12C): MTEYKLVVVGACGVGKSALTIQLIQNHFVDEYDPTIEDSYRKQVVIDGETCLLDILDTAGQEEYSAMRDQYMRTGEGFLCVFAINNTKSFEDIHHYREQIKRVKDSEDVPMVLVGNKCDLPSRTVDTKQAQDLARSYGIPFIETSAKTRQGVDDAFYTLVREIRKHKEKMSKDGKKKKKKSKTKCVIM
Assay: KRAS(G12C) Western blot protein degradation assay in LU65A cells
Format: cell-based
Set-up: LU65A human lung cancer cell line, which expresses KRAS(G12C); host or cells: LU65A
Details: 6 hr
Protocol: The following cancer cell lines were employed: BT-474 human breast carcinoma (ATCC, #HTB-20); MIA PaCa-2 human pancreatic carcinoma [2 copies KRAS(G12C)](ATCC, #CRL-1420); NCI-H23 human non-small cell lung cancer [1 copy KRAS(G12C)](ATCC, #CRL-5800); NCI-H358 human non-small cell lung cancer [1 copy KRAS(G12C)](ATCC, #CRL-5807); LU65A human lung carcinoma (Pharmaron, Beijing, China). Cell lines were cultured essentially according to ATCC and Pharmaron recommendations. […]
# maps each entry to its DC50

[
  {
    "molecule": "C=CC(=O)N1CCN(c2nc(OC[C@@H]3CC[C@H](CN4CCN(Cc5ccc(-n6c(O)nnc6-c6cc(C(C)C)c(O)cc6O)cc5)CC4)N3C)nc3c2CCN(c2cccc4cccc(C)c24)C3)C[C@@H]1CC#N [Compound 273]",
    "assay_system": "KRAS(G12C) (Homo sapiens, UniProt P01116, G12C)",
    "DC50": "100 to 1000 nM"
  },
  {
    "molecule": "C=CC(=O)N1CCN(c2nc(OC[C@@H]3C[C@H](N4CCC(C(=O)N5CCN(Cc6ccc(-n7c(O)nnc7-c7cc(C(C)C)c(O)cc7O)cc6)CC5)CC4)CN3C)nc3c2CCN(c2cccc4ccccc24)C3)C[C@@H]1CC#N [Compound 246]",
    "assay_system": "KRAS(G12C) (Homo sapiens, UniProt P01116, G12C)",
    "DC50": "> 1000 nM"
  },
  {
    "molecule": "C=CC(=O)N1CCN(c2nc(OC[C@@H]3C[C@H](N4CCC(C(=O)N5CC6(CCN(Cc7ccc(-n8c(O)nnc8-c8cc(C(C)C)c(O)cc8O)cc7)CC6)C5)CC4)CN3C)nc3c2CCN(c2cccc4cccc(Cl)c24)C3)C[C@@H]1CC#N [Compound 348]",
    "assay_system": "KRAS(G12C) (Homo sapiens, UniProt P01116, G12C)",
    "DC50": "100 to 1000 nM"
  },
  {
    "molecule": "C=CC(=O)N1CCN(c2nc(OC[C@@H]3CC[C@H](CN4CCN(Cc5ccc(-n6c(O)nnc6-c6cc(C(C)C)c(O)cc6O)cc5)CC4)N3C)nc3c2CCN(c2cccc(C)c2C)C3)C[C@@H]1CC#N [Compound 281]",
    "assay_system": "KRAS(G12C) (Homo sapiens, UniProt P01116, G12C)",
    "DC50": "100 to 1000 nM"
  },
  {
    "molecule": "C=CC(=O)N1CCN(c2nc(OC[C@@H]3C[C@H](N4CCN(Cc5ccc(-n6c(C(=O)NCC)nnc6-c6cc(C(C)C)c(O)cc6O)cc5)CC4)CN3C)nc3c2CCN(c2cccc4ccc(F)c(Cl)c24)C3)C[C@@H]1CC#N [Compound 278]",
    "assay_system": "KRAS(G12C) (Homo sapiens, UniProt P01116, G12C)",
    "DC50": "100 to 1000 nM"
  },
  {
    "molecule": "C=CC(=O)N1CCN(c2nc(OC[C@@H]3C[C@H](N4CCN(CC5CCN(Cc6ccc(-n7c(C(=O)NCC)nnc7-c7cc(C(C)C)c(O)cc7O)cc6)CC5)CC4)CN3C)nc3c2CCN(c2cccc4cccc(Cl)c24)C3)C[C@@H]1CC#N [Compound 276]",
    "assay_system": "KRAS(G12C) (Homo sapiens, UniProt P01116, G12C)",
    "DC50": "> 1000 nM"
  },
  {
    "molecule": "C=CC(=O)N1CCN(c2nc(OC[C@@H]3CC[C@H](CN4CCN(C(=O)C5CCN(Cc6ccc(-n7c(O)nnc7-c7cc(C)c(O)cc7O)cc6)CC5)CC4)N3C)nc3c2CCN(c2cccc4cccc(Cl)c24)C3)C[C@@H]1CC#N [Compound 319]",
    "assay_system": "KRAS(G12C) (Homo sapiens, UniProt P01116, G12C)",
    "DC50": "100 to 1000 nM"
  },
  {
    "molecule": "C=CC(=O)N1CCN(c2nc(OC[C@@H]3C[C@H](C(=O)NCCc4ccc(CN5CCC(Cc6ccc(-n7c(C(=O)NCC(F)(F)F)nnc7-c7cc(C(C)C)c(O)cc7O)cc6)CC5)cc4)CN3C)nc3c2CCN(c2cccc4cccc(Cl)c24)C3)C[C@@H]1CC#N [Compound 346]",
    "assay_system": "KRAS(G12C) (Homo sapiens, UniProt P01116, G12C)",
    "DC50": "100 to 1000 nM"
  }
]
